Listed below: pEC50 values for each entry.
- test target: mouse I7 receptor (mI7) (Mus musculus)
- Sequence (Q9QWU6 1-327): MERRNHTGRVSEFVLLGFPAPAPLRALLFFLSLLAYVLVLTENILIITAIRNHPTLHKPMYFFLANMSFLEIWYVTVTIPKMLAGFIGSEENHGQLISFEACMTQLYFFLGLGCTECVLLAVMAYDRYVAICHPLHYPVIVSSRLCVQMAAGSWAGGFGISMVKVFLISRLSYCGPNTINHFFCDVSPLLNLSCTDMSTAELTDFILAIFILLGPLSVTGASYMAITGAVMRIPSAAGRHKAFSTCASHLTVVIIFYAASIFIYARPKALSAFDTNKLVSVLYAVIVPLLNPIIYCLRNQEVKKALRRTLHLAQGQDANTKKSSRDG
pEC50: −log10 of the molar value.

- CCCCCCC=O: ~5.20

With mouse I7 receptor (mI7) (Mus musculus) as the test system, provide measured pEC50 for this compound: CCCCCCCC=O
~4.20
